Sourced from the supplement of paper PMC8728848

molecular target: Neu5Ac(a2-3)Gal(b1-3)[Neu5Ac(a2-6)]GlcNAc(b1-3)[Fuc(a1-3)[Gal(b1-4)]GlcNAc(b1-6)]Gal(b1-4)Glc; test: glycan array binding signal (z-score within array); higher = stronger binding; details: glycan notation: IUPAC condensed, linker removed
This excerpt belongs to a sample that is enriched for the strongest signals.
measurement-type: glycan array binding signal (z-score)
// return a plain number; no unit text

Worked examples follow.
[
  {
    "binder": "Pbx2CASH domain (Cryptococcus neoformans) (protein) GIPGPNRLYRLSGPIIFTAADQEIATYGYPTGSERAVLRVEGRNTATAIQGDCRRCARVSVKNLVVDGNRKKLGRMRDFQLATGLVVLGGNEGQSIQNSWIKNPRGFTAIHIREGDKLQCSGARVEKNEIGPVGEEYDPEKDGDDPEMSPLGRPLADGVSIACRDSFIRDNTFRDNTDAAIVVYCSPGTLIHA",
    "glycan array binding signal (z-score)": -0.803
  },
  {
    "binder": "Epa2 (Candida glabrata) (protein) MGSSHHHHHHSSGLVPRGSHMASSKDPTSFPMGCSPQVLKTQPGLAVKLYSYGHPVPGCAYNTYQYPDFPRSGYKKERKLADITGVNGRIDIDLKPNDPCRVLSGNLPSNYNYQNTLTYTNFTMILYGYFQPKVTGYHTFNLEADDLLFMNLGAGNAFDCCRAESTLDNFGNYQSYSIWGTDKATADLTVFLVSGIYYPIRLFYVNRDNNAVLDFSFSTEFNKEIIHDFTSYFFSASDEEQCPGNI",
    "glycan array binding signal (z-score)": 0.369
  }
]

Need glycan array binding signal (z-score), item AFCNVH (Aspergillus fumigatus) (protein) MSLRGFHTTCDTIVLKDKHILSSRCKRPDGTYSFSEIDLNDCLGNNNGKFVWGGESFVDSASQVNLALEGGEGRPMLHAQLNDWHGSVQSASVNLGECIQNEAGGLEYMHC -0.416
